These entries and their values trace back to patent US10144715B2.

molecular target: LXR α LBD protein (Homo sapiens (Human)); experiment: Human LXRα coactivator recruitment FRET assay, agonist mode; type: biochemical; settings: agonist mode
Measured metric: FRET LXRα efficacy
Hey, just the number and the unit after it is fine.

Would you please look over these solved cases?
>>> measured_value("CS(=O)(=O)c1cccc(N2CCN(Cc3ccc(C(F)(F)F)nc3)C(c3ccccc3Br)C2)c1 (stereo not drawn) [46-60]")
"39%"
>>> measured_value("CS(=O)(=O)c1cccc(N2CCN(Cc3ccc(C(F)(F)F)nc3)C(c3ccc(F)cc3)C2)c1 (stereo not drawn) [46-51]")
"41%"

The record that follows has no FRET LXRα efficacy shown yet.
Problem: Need FRET LXRα efficacy of CC(C)[C@H]1CC[C@H](CN2CCN(c3cccc(S(C)(=O)=O)c3)C[C@@H]2c2ccccc2)CC1 (single isomer, unassigned) [48-15] , thanks.
Result: 40%

====

biological target: LXR α LBD protein (Homo sapiens (Human), UniProt Q13133); test: LXR α radioligand binding assay (SPA, competition with [3H]TO901317); conditions: read-out: LXRα Binding Ki
Sequence (Q13133 209-447): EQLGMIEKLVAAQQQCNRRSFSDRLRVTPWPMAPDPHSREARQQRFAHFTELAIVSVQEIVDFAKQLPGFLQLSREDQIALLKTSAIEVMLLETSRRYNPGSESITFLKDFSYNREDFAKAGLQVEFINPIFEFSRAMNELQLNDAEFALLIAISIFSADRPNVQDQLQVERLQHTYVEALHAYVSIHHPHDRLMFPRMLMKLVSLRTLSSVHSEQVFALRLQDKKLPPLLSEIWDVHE
Some compounds, each annotated with its measured Ki.

These solved cases illustrate the format of a correct answer.
>>> measured_value("CC(C)c1ccc(CN2CCN(c3cccc(S(C)(=O)=O)c3)C[C@H]2c2ccccc2)cc1")
"> 3.33 µM"
>>> measured_value("COC1CN(C(=O)c2cnc(N3CCN(c4ccc(F)c(S(C)(=O)=O)c4)C[C@H]3C(C)C)nc2C(F)(F)F)C1")
"> 3.33 µM"

Note: attention shifts to another entry.
Problem: Please tell me: Ki of `CC(C)[C@H]1CN(c2cccc(S(C)(=O)=O)c2)CCN1CC1CCOCC1` , system LXR α LBD protein (Homo sapiens (Human), UniProt Q13133)?
Result: > 3.33 µM

====

biological target: Gal4 DNA binding domain fused to the LBD of LXRβ in HEK293 cells (Homo sapiens (Human), UniProt P55055); assay: cell-based
Sequence (P55055 222-460 limits assumed): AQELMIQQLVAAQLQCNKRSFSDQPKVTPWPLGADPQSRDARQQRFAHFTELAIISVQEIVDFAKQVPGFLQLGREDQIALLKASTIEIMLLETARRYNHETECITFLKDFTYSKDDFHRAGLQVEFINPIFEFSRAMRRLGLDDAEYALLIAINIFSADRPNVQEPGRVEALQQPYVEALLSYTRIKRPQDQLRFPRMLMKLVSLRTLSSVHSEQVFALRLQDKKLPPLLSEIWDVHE
Measured metric: Cell LXRβ efficacy

>>> measured_value("CC(C)[C@@H]1CN(c2ccc(F)c(S(C)(=O)=O)c2)CCN1c1ccc(C(F)(F)F)cn1")
"121 (93) %"
>>> measured_value("CC(C)[C@H]1CN(c2cccc(S(C)(=O)=O)c2)CCN1C[C@H]1CC[C@@H](C(F)(F)F)OC1 (single isomer, unassigned)")
"266 (77) %"

Problem: Fill blank: measured Cell LXRβ efficacy of the compound `CC(C)[C@H]1CN(c2ccc(CO)c(S(C)(=O)=O)c2)CCN1C[C@@H]1CC[C@H](C(F)(F)F)OC1` is ____.
Result: 20 (101) %

Problem: Let us now turn to `CC(C)[C@@H]1CN(c2cccc(S(C)(=O)=O)c2)CCN1c1nccc(OC(F)F)n1`
Result: 205 (10) %

Problem: How about this compound: `CC(C)[C@@H]1CN(c2ccc(F)c(S(C)(=O)=O)c2)CCN1c1nc2ncccc2s1`
Result: 289 (83) %

====

target: Gal4 DNA binding domain fused to the LBD of LXRα in HEK293 cells (Homo sapiens (Human)); experiment: LXR luciferase transcriptional reporter gene assay, agonist mode, LXRα; assay type: cell-based; details: read-out: Cell LXRα EC50
Sequence (Q13133 209-447): as the sequence (Q13133 209-447) above
Measured metric: pEC50
Remember the convention: pEC50 equals -log10 of concentration in molar.

Previously resolved entries follow.
>>> measured_value("CS(=O)(=O)c1cccc(N2CCN(C[C@H]3CC[C@@H](C(F)(F)F)OC3)[C@@H](c3ccc(F)cc3)C2)c1 (single isomer, unassigned) [49-9]")
5.78
>>> measured_value("CC(C)[C@@H]1CN(c2ccc(F)c(S(C)(=O)=O)c2)CCN1c1ncc([C@@H](C)O)c(C(F)(F)F)n1 [Cpd No 12-3]")
6.11
>>> measured_value("CS(=O)(=O)c1cccc(N2CCN(C[C@H]3CCC(C(F)(F)F)OC3)[C@@H](c3ccc(F)cc3)C2)c1 (single isomer, unassigned) [49-10]")
5.80
>>> measured_value("C[C@@](O)(c1ccc(CN2CCN(c3cccc(S(C)(=O)=O)c3)C[C@H]2c2ccccc2)cc1)C(F)(F)F (single isomer, unassigned) [46-30]")
5.75

Problem: Form field: reported pEC50 of CC(C)[C@@H]1CN(c2ccc(F)c(S(C)(=O)=O)c2)CCN1c1ncc([C@H](C)O)c(C(F)(F)F)n1 [Cpd No 12-2]
Result: 6.13

Problem: Further, for CC(C)[C@@H]1CN(c2ccc(F)c(S(C)(=O)=O)c2)CCN1c1ncc(C(O)C(F)(F)F)cn1 (stereo partly drawn) [Cpd No 41-1] ?
Result: 5.48

Problem: Proceed to CC(C)[C@@H]1CN(c2ccc(CO)c(S(C)(=O)=O)c2)CCN1c1nc(C(F)(F)F)c(C(N)=O)s1 [17-35]
Result: 5.76

Problem: Ok, now CC(C)C1CN(c2ccc(C#N)c(S(C)(=O)=O)c2)CCN1CC1CCC(C(F)(F)F)CC1 (stereo not drawn) [50-2]
Result: 6.14

Problem: Similarly, CC(C)[C@@H]1CN(c2cccc(S(C)(=O)=O)c2)CCN1C[C@H]1CC[C@@H](C(F)(F)F)CC1 (single isomer, unassigned) [48-9] ?
Result: 5.49

Problem: Entry CC(C)[C@H]1CN(c2ccc(CO)c(S(C)(=O)=O)c2)CCN1Cc1ccc(C(F)(F)F)cc1 [47-2] please
Result: 6.34

Problem: Request: CS(=O)(=O)c1cccc(N2CCN(Cc3ccc(OC(F)(F)F)cc3)[C@@H](c3ccccc3)C2)c1 (single isomer, unassigned) [46-23]
Result: 5.36

Problem: How about CNS(=O)(=O)c1cc(N2CCN(c3ncc(C(C)=O)c(C(F)(F)F)n3)[C@H](C(C)C)C2)ccc1F [13-2] ?
Result: 6.54

Problem: Same read-out for CS(=O)(=O)c1cccc(N2CCN(C[C@H]3CC[C@]4(CC3)CC4(F)F)[C@@H](c3ccccc3)C2)c1 (single isomer, unassigned) [48-71] ?
Result: 6.63

Problem: Now consider CC(C)[C@@H]1CN(c2ccc(F)c(S(C)(=O)=O)c2)CCN1c1ncc(Cl)c(C2CC2)n1 [Cpd No 22-1] .
Result: 5.83

Problem: Try this molecule next: CC(C)[C@@H]1CN(c2ccc(F)c(S(C)(=O)=O)c2)CCN1c1ncc(Cc2ccc(C(C)(C)O)cc2)c(C(F)(F)F)n1 [Cpd No 31-1]
Result: 5.57
